assay: yeast display, Sf9 membrane polyspecificity reagent, FACS + sequencing; frameworks hold sequencing errors
readout_kind: polyreactivity (PSR sort gate)

1. QVKLVESGGGLVQAGGSLRLSCAASGFIFGDNAMGWYRQAPGKVREFVAAINSGSRTSYADSVKGRFTISRDNAKNTVYLQMNSLKPEDTAVYYCAAESVSSGDYASRYDYWGQGTQVTVSS : low polyreactivity
2. QVHLVESGGGLVQAGGSLRLTCAASGLTFIRYAMGCYRQAPGKERELVAAISSYGGTTYYADSVKGRFTISRDKAKNTVYLQMISLKPEDTSVYYCAAVLTYYRGSTWTFSGFAYDHWGQGTQVTVSS : high polyreactivity
3. QVQLVESGGGLVQAGGILRLSCASSGRIFTRYAMGWYRPAPGKEREFVAAINYRGSSTYYADSVKGRFTISRDNAKNTVYLQMNSLKPEETAVDYCNTYGQTDTYWRYYYWGQGTQVTVSS : high polyreactivity
4. QVQLVDSGGGLVQAGGSLRLSCAASGSIFVSYTMGRYRQAPGKEREFVAAITKSGGSTYYADSVKGRFTISRDNAKNTVYLQMNSLKPEDTAVYYCAADWLHYVYEGYDYWGQGTQVTVSS : low polyreactivity
5. QVQLEESGGGLVQAGGSLRLSCAASGSTFFPYAMGWYRQAPGKERELVAGISSDGGTSYADSVKGRFTISRDTAKNTVYLQMNSLKPEDTAVYYCNARAVNVRDYINYDYWGQGTQVTVSS : low polyreactivity
6. QVQLVESGGGLVQAGGSLRLSCAASGRIFSVYAMGWYRQAPGKEREFVASISWRGGRTYYADSVKGRFTISRDNAKNTFYLQMNSLKPEDTAVYYCAAVSYPAVYGFDYWGQGTQVTVSS : high polyreactivity
7. QVQLVESGGGLVQAGGSLRLSCAASGIIFYRNTMGWYRQAPGKERELVASISRGGSTNYADSVKGRFTISRDNAKNTVYLQMNSLKPEDTAVYYCAAYTYIPLSYYRGYTMDYWGQGTQVTVSS : low polyreactivity
8. QVQLVESGGGLVQAGGSLRLSCAASGSTFQTYAMGWYRQAPGKERELVAAITYGGSTNYADSVKGRFTMSRANAKNTVYLLMNSLKPEDTAVYYCAARDGDQRPRLRYDYWAQGTQVTVSS : low polyreactivity
9. QVQLVESGGGLVQAGGSLRLSCAASGFTFYQYAMGWYRQAPGKERELVAAISSSGTSTYYADSVKGRFTISRDNAKNTVYLQMNSLKPEDTAVYYCAARRYKLFYWGQGTQVTVSS : low polyreactivity
10. QVQLVESGGGLVQAGGSLRLSCAASGRTFRSYAMGWYRQAPGKERELVAAINTNGGSTYYADSVKGRFTISRDNAKNTVYLQMNSLKPEDTAVYYCRAWAQNQFNYWGQGTQVTVSS : high polyreactivity
11. QVQLLESGGGLVQAGGSLRLSCAASGRIYLYAMGWYRQTPGKERELVAAISYSGGSTYYADSVKGRFTISRDNAKNTVYLQMNSLKPEDTAVYYCAAEAGSYWRWFWYDSWGQGTQVTVSS : high polyreactivity
12. QVQLVESGGGLVQAGGSLRLSCAASGFTFGLYAMGWYRQAPGKERELVAAITWSGGSTYYADSVKGRFTISRDNAKNTVYLQMNSLKPEDTAFYYCNRLSNNREYDYWGQGTQVTLSS : high polyreactivity
13. QVQLVQSVGGLVQAGGSLRLSCAATGRIFFSYAMGWYRQAPGKERELVAAISWDGGSTYYADSVKGRFTISRDNAKNTDYLQMTSLKPEDTAVSYCNADTHFPPSSSSYSPSLLDYWGQGTQVTVSS : low polyreactivity
14. QDQLVESGGALGQAGGSLRLSCAASGSIFFYYAMGCYRQAPGKEREFVAHITSSEASTHYADSVKGRFTISRDTAKNTVYLQMNSLIPEDTAVYYCAADRYPGHRERDFWGQGSQVTVSS : low polyreactivity
15. QVQLVESGGGLVQAGGSLRVSCAASGSTFGYYAMGWYREAPGKEREFVAAINYGDGNTYYADSVKGRFTISRDNAKNTVYLQMNRLKPEDTAVYYCATYYWAPTGAHGGYGYWVQGTQVTVSS : low polyreactivity
16. QVQLVESGGGLVQAGGSLRLSCAASGFIITTYAMGWYRQAPGKERELVAGISSSGGRTYADSVKGRFTISRDNAKNTVYLQMNSLKPEDTAVYYCAREQWRTLVQTDKYKYDYWGQGTQVTVSS : high polyreactivity
17. QVQLVESGGGLVQAGGSLRLSCAATGNTFLWYARGWYRQAPGKERELVAAITWSGGRTYYADSVKGRFTISRDNALYTVYLQMHSLKPEDTAVYYFAADYGYFLGGVYFHKVKFDYWGQGTQVTVSS : high polyreactivity
18. QVQLQESGGGVQAGGSLRLSCAASGSISAPILMVWYRQAPGKERELVAGIGGGANTYYADSVKGRFTVSRDNAKYTVYLQMNSLKPEDTAVYYCAAGDYYWTNFGYWGQGTQVTASS : high polyreactivity
19. LVQQVESGGGLVQAVGTLRISCAASGQILYSYAMGWYRQAPGKERELVAAITGGVSTNYADSVKGRFTISRDNAKNTVYLQMNSLKPEDTAVYYCNVELWEYSYIDEYWGQGTQLTVSS : low polyreactivity
20. QVQLVESGGGLVQAGGSLRLSCAASGIIFTSYVMGWYRQAPGKERELVAAISSDGGSTYYADSVKGRFTISRDNAKNTVYLQMNSLKPEDTAVYYCAVDWLEIGDTGFDYWGQGTQVTVSS : low polyreactivity
21. QVQLVESGGGLVQAGGSLRLSCAASGRTFRKYAMGWYRQAPGKERELVAAITTSGARTYYADSVKGRFTISRDNAKNTVYLQMNSLKPEDTAVYYCNAVIPYYGIEFDYWGQGTQVTVSS : high polyreactivity

----------
experiment: yeast display, Sf9 membrane polyspecificity reagent, FACS + sequencing; frameworks hold sequencing errors
readout_kind: polyreactivity (PSR sort gate)

1. QVQLVESGGGLVQAGGILRLSCAASGNILRFNARGWYRPAPGKEMELVAAISRSGGTTYYADSEKGRFTISRDYAKNTVYLQMNSLKPEDTAVYYCADRYRYGESPGYYWGHGTQVTVSS : high polyreactivity
2. QVQLVESGGGLVQAGGSLRLSCAASGFIFGTNAMGWYRQAPGKERELVASISSTGGSTYYADSVKGRFTISRDNAKNTVYLQMNSLKPEDTAVYYCAADPYPEYIRYLPGVDYWGQGSQVTVSS : low polyreactivity
3. QVQLVESGGGLVQAGGSLRISCAASGNIFPYYAMGWYRQAPGKERELVATITRGGRTNYADSVKGRFTISRDNAKNTVYLQMNSLKPEDTAVYYCASYSYTLTYRFDYWGQGTQVTVSS : low polyreactivity
4. QVQLVESGGGLVQAGGSLRLSCAASGSIMVRYAMGWYRQAPGKERELVAAITSGGSTYADSVKGRFTISRDNAKNTVYLQMNSLKPEDTAVYYCARDYFNREAFDYWGQGTQVTVSS : low polyreactivity
5. QVQLVESGGGLVQAGGSLRLSCAASGRTFTKNAMGWYRQAPGKERELVAAISISGGSTYYADSVKGRFTISRDNAKNTVYLQMYSLKPEDTAVYYCAADVVTYLSYTLDYWGQGTQVTVSS : low polyreactivity
6. QVQLVESGRGLVQAGGSLRLSCAASGFTLWIYAKGWYRQAPGKESELVAAITWSTGSTYYADSVKGRFTISRDNAKNTVYLLMNSLKPEDTAVYYCPAEFHWWYAGYDYGYWGQGTQVTVSS : low polyreactivity
7. QVQIVESGGGLVQAGGSLRISCAASGRIFRTYAMGWYRQAPGKERELVAAISSRGGSTSYADSVKGRFTISRDNEKNTVYLQLNSLKPEDTAVYYCARVGRNPVKYDYWGQGTQVTVSS : high polyreactivity
8. QVQLVESGGGLVQAGGSLRLSCAASGSIFKHNAMGWYRQAPGKERELVATISESGGSTYYADSVKGRFTISRDNAKNTVYLQMNSLKPEDTAVYYCNTDYDYGWWDLGEYDYWGQGTQVTVSS : low polyreactivity
9. QVQLVESGGGLVQAGGSLRLSCAASGAIFAYNAMGWYRQAPGKEREFVAAISQSGGRTYYADSVKGRFTISRDYEKNTVYLQMNTLKPEDTAVYYCATDGIRLTSHRDYDYWGQGTQVTVSS : low polyreactivity
10. QVQLVESGGGLVQAGGSLRLSCAASGRTFYTNAMGWYRQAPGKERELVASISGSGGSTYYADSVKGRFTISRDNGKNTVYLQMNSLNPEDTAVYYCAADPAPTVEFGKYDYWGQGTQVTVSS : low polyreactivity
11. QVQLVESGGGLVQAGGSLRLSCAASGITFKYYGMGWYRQAPGKERELVAAISWSGASTYYADSVKRRFTISRDNAKNTVYLQMNSLKPEDTAVYYCAAVRRRGQRGRLDYWGQGTQVTVSS : high polyreactivity

Cited source: the nanobody polyreactivity screen of Harvey et al. (2022)
